For reference, the following IC50 results for Amine oxidase [flavin-containing] B (Homo sapiens, UniProt P27338) were taken from various sources.
Supply the numeric figure in µM, leaving out any unit text.

> print(dat)
                                molecule  unit.info  experimental.value
1  O=C1c2ccc(OCc3ccc(F)cc3)cc2C(=O)N1CCO         µM               0.004

query: Form entry - test system: Amine oxidase [flavin-containing] B (Homo sapiens, UniProt P27338); read-out: IC50; molecule: NC(=O)CC(O)CN1C(=O)c2ccc(OCc3ccc(F)cc3)cc2C1=O (centres unmarked)
result: 0.097

query: Form entry - test system: Amine oxidase [flavin-containing] B (Homo sapiens, UniProt P27338); read-out: IC50; molecule: "Cc1ccncc1-c1ccc2cc(OC[C@H](O)CF)ccc2n1"
result: 0.294

query: Form entry - test system: Amine oxidase [flavin-containing] B (Homo sapiens, UniProt P27338); read-out: IC50; molecule: "NC(=O)CNC(=O)c1ccc(OCc2cccc(F)c2)cc1F"
result: 0.0153

query: Form entry - test system: Amine oxidase [flavin-containing] B (Homo sapiens, UniProt P27338); read-out: IC50; molecule: O=C(Nc1ccc([C@@H]2C[C@H]2NCc2ccccc2)cc1)c1cccc(Br)c1 (relative stereo)
result: 9

query: Form entry - test system: Amine oxidase [flavin-containing] B (Homo sapiens, UniProt P27338); read-out: IC50; molecule: "NC(=O)CC(=O)Nc1ccc(OCc2ccc(F)cc2)cc1"
result: 0.0075

---

For reference, the following IC50 results for Amine oxidase [flavin-containing] B (Homo sapiens, UniProt P27338) were taken from various sources.

Below, 6 compounds whose answers are already recorded.
> print(dat)
                                   compound  experimental.value
1  CS(=O)(=O)Nc1ccc(-c2coc3cc(C#CC4(O)CCCC4)ccc3c2=O)cc1            > 130 µM
2  NC(=O)[C@H](CO)N1C(=O)c2ccc(OCc3ccc(F)cc3)cc2C1=O            0.017 µM
3  CNC(=O)C(C)Cc1ccc(OCc2cccc(F)c2)cc1 (stereo not shown)            0.029 µM
4  CC(C)(C)OC(=O)NC1(C(=O)N2CC(C#Cc3ccc4c(=O)c(-c5ccc(NS(C)(=O)=O)cc5)coc4c3)C2)CC1            > 130 µM
5  Cc1cc(CNC(=O)c2c(Cl)cccc2Cl)ccc1-c1cc[nH]c(=O)c1            > 130 µM
6  O=C(Nc1ccc([C@@H]2C[C@H]2NCc2ccc3c(c2)OCO3)cc1)c1ccc(-c2ccccc2)cc1 (relative stereo)             > 10 µM

Attention now turns to another entry.
query: Form entry - test system: Amine oxidase [flavin-containing] B (Homo sapiens, UniProt P27338); read-out: IC50; compound: CC1=NN(c2ccc(C(=O)Nc3ccc([C@@H]4C[C@H]4NCC4CC4)cc3)cc2)C(=O)C1 (relative stereo)
result: > 10 µM

---

For reference, the following IC50 results for Amine oxidase [flavin-containing] B (Homo sapiens, UniProt P27338) were taken from various sources.

Below, 8 compounds whose answers are already recorded.
> print(dat)
                                   compound                          target.or.system  result.type  experimental.value
1  O=C(NC1CCOCC1)c1csc([C@@H]2C[C@H]2NCC2CCC2)c1  Amine oxidase [flavin-containing] B (Homo sapiens, UniProt P27338)         IC50            > 100 µM
2     NC(=O)CC(=O)Nc1ccc(OCc2cccc(F)c2)cc1O  Amine oxidase [flavin-containing] B (Homo sapiens, UniProt P27338)         IC50            0.016 µM
3  CS(=O)(=O)Nc1ccc(-c2coc3cc(C#CC4(O)CCCCC4)ccc3c2=O)cc1  Amine oxidase [flavin-containing] B (Homo sapiens, UniProt P27338)         IC50            > 130 µM
4  CC(N[C@@H]1C[C@H]1c1ccc(NC(=O)c2ccc(-c3ccccc3)cc2)cc1)c1ccccc1 (relative stereo)  Amine oxidase [flavin-containing] B (Homo sapiens, UniProt P27338)         IC50              1.7 µM
5  CS(=O)(=O)Nc1ccc(-c2coc3cc(C#CC4CCNCC4)ccc3c2=O)cc1  Amine oxidase [flavin-containing] B (Homo sapiens, UniProt P27338)         IC50            > 130 µM
6  O=C(Nc1ccc([C@@H]2C[C@H]2NC2CCCCCC2)cc1)c1ccccc1 (relative stereo)  Amine oxidase [flavin-containing] B (Homo sapiens, UniProt P27338)         IC50             > 10 µM
7  O=C1CN(c2ccc(CNC(=O)c3c(Cl)cccc3Cl)cn2)CCN1  Amine oxidase [flavin-containing] B (Homo sapiens, UniProt P27338)         IC50             > 10 µM
8  CC(C)(C)OC(=O)NC1(C(=O)N2CC(C#Cc3ccc4c(=O)c(-c5ccc(NS(C)(=O)=O)cc5)coc4c3)C2)CCC1  Amine oxidase [flavin-containing] B (Homo sapiens, UniProt P27338)         IC50            > 130 µM

query: What measured IC50 goes with O=C(Nc1ccc([C@@H]2C[C@H]2NCC2CC2)cc1)c1ccc(-n2ccnc2)cc1 (relative stereo) ?
result: > 10 µM

query: What measured IC50 goes with "O=CNCC(=O)Nc1ccc(OCc2ccc(F)cc2)cc1F" ?
result: 0.007 µM

query: What measured IC50 goes with "COC[C@H](C)NC(=O)c1ccc(OCc2cccc(F)c2)cc1F" ?
result: 0.008 µM

query: What measured IC50 goes with COc1ccc(CN[C@@H]2C[C@H]2c2ccc(NC(=O)c3ccc(-c4ccccc4)cc3)cc2)cc1OC (relative stereo) ?
result: > 10 µM

query: What measured IC50 goes with "N#Cc1cccc(-c2nc(COc3ccc4c(=O)n(-c5ccc(O)cc5)cnc4c3)no2)c1" ?
result: > 10 µM

query: What measured IC50 goes with CC(C(N)=O)C(=O)Nc1ccc(OCc2cccc(F)c2)cc1 (centres unmarked) ?
result: 0.013 µM

query: What measured IC50 goes with "Cc1nccc(Cl)c1C(=O)NCc1ccc(-c2cccc(=O)[nH]2)nc1" ?
result: > 10 µM

query: What measured IC50 goes with "COC[C@H](C)N1C(=O)c2ccc(OCc3cccc(OC)c3)cc2C1=O" ?
result: 0.069 µM

query: What measured IC50 goes with "COc1ccc(-c2nc(COc3ccc4c(=O)n(-c5ccc(O)cc5)cnc4c3)no2)cc1C(F)(F)F" ?
result: > 10 µM

---

For reference, the following IC50 results for Amine oxidase [flavin-containing] B (Homo sapiens, UniProt P27338) were taken from various sources.

Below, 5 compounds whose answers are already recorded.
> print(dat)
                                   compound  experimental.value
1  COc1cccc(CN[C@@H]2C[C@H]2c2ccc(NC(=O)c3ccc(-c4ccccc4)cc3)cc2)c1 (relative stereo)              5.1 µM
2  O=C(Nc1ccc([C@@H]2C[C@H]2NCC2CC2)cc1)c1ccc(-c2cccnc2)cc1 (relative stereo)             > 10 µM
3  O=C(Nc1ccc([C@@H]2C[C@H]2NCC2CC2)cc1)c1ccc2nc(-c3ccsc3)[nH]c2c1 (relative stereo)             > 10 µM
4  CC(C)(O)C#Cc1ccc2c(=O)c(-c3ccc(NS(C)(=O)=O)cc3)coc2c1             > 91 µM
5  Cc1nccc(Cl)c1C(=O)NCc1ccc(-c2[nH]c(=O)ccc2F)cc1             > 10 µM

query: Form entry - test system: Amine oxidase [flavin-containing] B (Homo sapiens, UniProt P27338); read-out: IC50; compound: CN1CCN(c2cccc(C(=O)Nc3ccc([C@@H]4C[C@H]4NCC4CC4)cc3)c2)CC1 (relative stereo)
result: > 10 µM

query: Form entry - test system: Amine oxidase [flavin-containing] B (Homo sapiens, UniProt P27338); read-out: IC50; compound: O=C(Nc1ccc([C@@H]2C[C@H]2NCC2CC2)cc1)c1cc2ccccc2o1 (relative stereo)
result: > 10 µM

---

For reference, the following pIC50 results for Amine oxidase [flavin-containing] B (Homo sapiens) were taken from various sources.
Worth noting: pIC50 values are minus log10 of concentrations stated in mol/L.

> print(dat)
                                   molecule                          target.or.system  experimental.value
1      COCCNC(=O)c1ccc(OCc2ccc(F)cc2)c(F)c1  Amine oxidase [flavin-containing] B (Homo sapiens)                7.74
2      NC(=O)CNC(=O)c1ccc(OCc2ccc(F)cc2)cn1  Amine oxidase [flavin-containing] B (Homo sapiens)                7.52
3  NC(=O)CC(=O)Nc1ccc(OCc2cccc(F)c2)c(Cl)c1  Amine oxidase [flavin-containing] B (Homo sapiens)                8.22

query: Form entry - test system: Amine oxidase [flavin-containing] B (Homo sapiens); read-out: pIC50; molecule: CC[S+]([O-])CCN1C(=O)c2ccc(OCc3ccc(F)cc3)cc2C1=O (stereo not drawn)
result: 6.94

query: Form entry - test system: Amine oxidase [flavin-containing] B (Homo sapiens); read-out: pIC50; molecule: "C[C@H](NC(=O)c1c(F)cc(OCc2ccc(F)cc2)cc1F)C(N)=O"
result: 7.66

query: Form entry - test system: Amine oxidase [flavin-containing] B (Homo sapiens); read-out: pIC50; molecule: "CC(=Cc1ccc(OCc2cccc(F)c2)cc1)C(N)=O"
result: 7.08

query: Form entry - test system: Amine oxidase [flavin-containing] B (Homo sapiens); read-out: pIC50; molecule: "Cc1cc(NC(=O)CC(N)=O)ccc1OCc1cccc(F)c1"
result: 7.72

query: Form entry - test system: Amine oxidase [flavin-containing] B (Homo sapiens); read-out: pIC50; molecule: "NC(=O)C1(C(=O)Nc2ccc(OCc3cccc(F)c3)cc2)CC1"
result: 8.10

query: Form entry - test system: Amine oxidase [flavin-containing] B (Homo sapiens); read-out: pIC50; molecule: "COCCNC(=O)c1ccc(OCc2cccc(F)c2)cc1F"
result: 7.71

query: Form entry - test system: Amine oxidase [flavin-containing] B (Homo sapiens); read-out: pIC50; molecule: "NC(=O)CC(=O)Nc1ccc(OCc2cccc(F)c2)c(F)c1"
result: 8.14

query: Form entry - test system: Amine oxidase [flavin-containing] B (Homo sapiens); read-out: pIC50; molecule: "NC(=O)CNC(=O)c1ccc(OCc2ccc(F)cc2)c(F)c1"
result: 8.51
